Where do the numbers come from? From the supplement of paper PMC10567573.

B1: PTPRD (parent)
chain: MVHVARLLLLLLTFFLRTDAETPP

Variants of: B1
Experiment: protein stability index of a GFP-peptide fusion (GPS, HEK-293T) (PSI 1-6); higher = more stable;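 further: lentivirally expressed fusions sorted by FACS into six bins by GFP to DsRed ratio, PSI derived from sequencing read proportions per bin multiplied by bin number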
Conditions: c terminus: a fixed tail appended
Class label 1: protein stability index at least 3. Class label 0: protein stability index below 3.

q: Is protein stability index at least 3? Consider MVHVARLLLLLLTPFLRTDAETPP [F14P]
a: label 0

q: Record MVHVARLLLLLLWFFLRTDAETPP [T13W] ; criterion: protein stability index no lower than 3. Met?
a: label 1

q: Entry MVHVARLLLLLLTFFLREDAETPP [T18E] : is its protein stability index no less than 3?
a: label 0

q: Could you please find out whether MVHVARLLLLLLTFFGRTDAETPP [L16G] has protein stability index that meets 3 or exceeds it?
a: label 0

q: Does protein stability index meet or surpass 3 for MVHVARLLLLLLTFFLRYDAETPP [T18Y] ?
a: label 0

q: Threshold query (protein stability index >= 3) on MVHVARLLLLLLTFFLRTDEETPP [A20E]
a: label 0

q: Does protein stability index meet or surpass 3 for MVHVARLLLLHLTFFLRTDAETPP [L11H] ?
a: label 0

q: Decide: protein stability index of MVHVARLLLLLLTFFLRVDAETPP [T18V] >= 3?
a: label 0

q: Is protein stability index at least 3? Consider MVHVARLLLLLLTFFLRTDAEDPP [T22D]
a: label 0

q: Can MVHVARLLLLLLTFNLRTDAETPP [F15N] be said to have protein stability index at or above 3?
a: label 1

q: Does protein stability index meet or surpass 3 for MVHVARLLLALLTFFLRTDAETPP [L10A] ?
a: label 0

q: Given the entry MVHVARLLLLLVTFFLRTDAETPP [L12V] , answer whether its protein stability index meets or surpasses 3.
a: label 0

q: # check: protein stability index of MVHVAVLLLLLLTFFLRTDAETPP [R6V] is greater than or equal to 3
a: label 0

q: # check: protein stability index of MVHVARLLLLLLTFFLITDAETPP [R17I] is greater than or equal to 3
a: label 0

q: Please tell me: is the variant MVHVARLLLLLLTFFLRTDGETPP [A20G] at or over 3 in terms of protein stability index?
a: label 0

q: Assess whether reported protein stability index for MVHVAILLLLLLTFFLRTDAETPP [R6I] sits at 3 or higher.
a: label 0

q: Quick check: does MVHVARLLLLLLTFFLRTDAERPP [T22R] have protein stability index greater than or equal to 3?
a: label 1

q: Evaluate MVHVARLFLLLLTFFLRTDAETPP [L8F] : protein stability index at minimum 3?
a: label 0

q: Given the entry MVHVIRLLLLLLTFFLRTDAETPP [A5I] , answer whether its protein stability index meets or surpasses 3.
a: label 0

q: Check if protein stability index >= 3 (inclusive). Item: MVHVARLLLRLLTFFLRTDAETPP [L10R]
a: label 0

q: Given MVHVARLLLLLLTFFLRTDAETVP [P23V] , state whether its protein stability index is at least 3.
a: label 0

q: Hello, I need to know if MVHVARLLLLLLTFFLQTDAETPP [R17Q] has measured protein stability index not below 3. Thanks!
a: label 0

q: Record MVHVARLLLLLLTFFLRTDAETTP [P23T] ; criterion: protein stability index no lower than 3. Met?
a: label 0

q: # bool: protein stability index of MVHVARLLLLLLTFFLRTDAETPM [P24M] >= 3
a: label 1

q: Say whether MVHVARLLLLLLQFFLRTDAETPP [T13Q] shows protein stability index of 3 or more.
a: label 0

q: Answer whether protein stability index of MVHVARLLLLLLTFFMRTDAETPP [L16M] is greater than or equal to 3.
a: label 1

q: Reported protein stability index reaches at least 3 for MVHVARLLLLLLTFFLRTQAETPP [D19Q] ?
a: label 0

q: Please tell me: is the variant MVHVARLLLLLLTNFLRTDAETPP [F14N] at or over 3 in terms of protein stability index?
a: label 0

q: Is the recorded value of protein stability index equal to or greater than 3 for this variant? MVHVARLLLLLLTFHLRTDAETPP [F15H]
a: label 1

q: Exam item: decide whether the reported protein stability index for MVHVARLLLTLLTFFLRTDAETPP [L10T] is at least 3.
a: label 0
